- studyTarget: GSK3A (human) (UniProt P49840)
- Sequence (P49840 whole entry, looked up): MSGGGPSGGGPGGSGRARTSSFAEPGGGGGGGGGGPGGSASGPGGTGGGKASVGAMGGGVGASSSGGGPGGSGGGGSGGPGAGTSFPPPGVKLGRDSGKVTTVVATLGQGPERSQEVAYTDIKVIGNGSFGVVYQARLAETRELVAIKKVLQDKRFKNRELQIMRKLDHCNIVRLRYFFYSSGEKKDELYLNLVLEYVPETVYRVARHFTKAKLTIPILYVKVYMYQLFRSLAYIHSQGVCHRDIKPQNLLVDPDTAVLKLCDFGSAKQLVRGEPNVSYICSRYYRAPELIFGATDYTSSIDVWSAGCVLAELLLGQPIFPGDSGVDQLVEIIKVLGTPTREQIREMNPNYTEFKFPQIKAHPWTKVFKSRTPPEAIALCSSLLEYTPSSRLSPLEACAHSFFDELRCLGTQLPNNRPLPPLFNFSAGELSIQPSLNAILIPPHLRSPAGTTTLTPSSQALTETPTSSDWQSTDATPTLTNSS
- protocolSummary: KINOMEscan competition binding
- testParameters: compound 10.0 µM
propertyName: kinase still bound, per cent of control (%)
Numeric only. Scale: %

Challenge: Provide value of kinase still bound, per cent of control for this record tested with GSK3A (human) (UniProt P49840): `CCc1nc(-c2cccc(C)c2)c(-c2ccnc(NC(=O)c3ccccc3)c2)s1`
Response given: 100

Challenge: Further, for `O=c1[nH]c2ccccc2n1C1CCN(Cc2ccc(-c3nc4cc5[nH]cnc5cc4nc3-c3ccccc3)cc2)CC1` ?
Response given: 100

Challenge: Same read-out for `CCN1CCN(Cc2ccc(NC(=O)c3ccc(C)c(/C=C/c4cnc5[nH]ccc5c4OC)c3)cc2C(F)(F)F)CC1` ?
Response given: 100

Challenge: Also `Cc1cn(-c2cc(C(=O)Nc3ccc(C)c(NC(=O)c4ccno4)c3)cc(C(F)(F)F)c2)cn1` ?
Response given: 100

Challenge: Now the molecule `CNC(=O)Nc1ccc(-c2nc(N3CC4CCC(C3)O4)c3cnn(C4CCC5(CC4)OCCO5)c3n2)cc1`
Response given: 82

Challenge: Now the same for `COc1ccc(N(C(=O)Oc2cc(C(=O)Nc3cccc(C(F)(F)F)c3)ccc2C)c2ccnc(Nc3ccc(N4CCN(C)CC4)cc3)n2)c(OC)c1`
Response given: 100

Challenge: Moving on to the next molecule: `C=CC(=O)Nc1ccc(C(=O)c2sc(Nc3ccc(N4CCN(C)CC4)cc3OC)nc2N)cc1`
Response given: 67

Challenge: Proceed to `COc1cc2ncnc(Nc3cccc(Cl)c3)c2cc1OC`
Response given: 84

Challenge: Also `CCN(CCO)CCCOc1ccc2c(Nc3cc(CC(=O)Nc4cccc(F)c4)[nH]n3)ncnc2c1` ?
Response given: 100

Challenge: Follow-up item: `CCCS(=O)(=O)Nc1ccc(F)c(C(=O)c2c[nH]c3ncc(Cl)cc23)c1F`
Response given: 100

Challenge: And `COc1cc2c(Nc3ccc(NC(=O)c4ccccc4)cc3)ncnc2cc1OCCCN1CCOCC1` ?
Response given: 100

Challenge: Now try `CCOc1cc(N2CCC(O)CC2)ccc1Nc1ncc2c(n1)N(C)c1ccccc1C(=O)N2C` .
Response given: 100

Challenge: Can you check `CC(=O)c1c(C)c2cnc(Nc3ccc(N4CCNCC4)cn3)nc2n(C2CCCC2)c1=O` next?
Response given: 50

Challenge: Again, but for `N#C/C(=C1/Nc2ccccc2S1)c1ccnc(NCCc2cccnc2)n1`
Response given: 0.6

---

- studyTarget: TYK2 JH1 catalytic (human) (UniProt P29597)
- Sequence (P29597 whole entry, looked up): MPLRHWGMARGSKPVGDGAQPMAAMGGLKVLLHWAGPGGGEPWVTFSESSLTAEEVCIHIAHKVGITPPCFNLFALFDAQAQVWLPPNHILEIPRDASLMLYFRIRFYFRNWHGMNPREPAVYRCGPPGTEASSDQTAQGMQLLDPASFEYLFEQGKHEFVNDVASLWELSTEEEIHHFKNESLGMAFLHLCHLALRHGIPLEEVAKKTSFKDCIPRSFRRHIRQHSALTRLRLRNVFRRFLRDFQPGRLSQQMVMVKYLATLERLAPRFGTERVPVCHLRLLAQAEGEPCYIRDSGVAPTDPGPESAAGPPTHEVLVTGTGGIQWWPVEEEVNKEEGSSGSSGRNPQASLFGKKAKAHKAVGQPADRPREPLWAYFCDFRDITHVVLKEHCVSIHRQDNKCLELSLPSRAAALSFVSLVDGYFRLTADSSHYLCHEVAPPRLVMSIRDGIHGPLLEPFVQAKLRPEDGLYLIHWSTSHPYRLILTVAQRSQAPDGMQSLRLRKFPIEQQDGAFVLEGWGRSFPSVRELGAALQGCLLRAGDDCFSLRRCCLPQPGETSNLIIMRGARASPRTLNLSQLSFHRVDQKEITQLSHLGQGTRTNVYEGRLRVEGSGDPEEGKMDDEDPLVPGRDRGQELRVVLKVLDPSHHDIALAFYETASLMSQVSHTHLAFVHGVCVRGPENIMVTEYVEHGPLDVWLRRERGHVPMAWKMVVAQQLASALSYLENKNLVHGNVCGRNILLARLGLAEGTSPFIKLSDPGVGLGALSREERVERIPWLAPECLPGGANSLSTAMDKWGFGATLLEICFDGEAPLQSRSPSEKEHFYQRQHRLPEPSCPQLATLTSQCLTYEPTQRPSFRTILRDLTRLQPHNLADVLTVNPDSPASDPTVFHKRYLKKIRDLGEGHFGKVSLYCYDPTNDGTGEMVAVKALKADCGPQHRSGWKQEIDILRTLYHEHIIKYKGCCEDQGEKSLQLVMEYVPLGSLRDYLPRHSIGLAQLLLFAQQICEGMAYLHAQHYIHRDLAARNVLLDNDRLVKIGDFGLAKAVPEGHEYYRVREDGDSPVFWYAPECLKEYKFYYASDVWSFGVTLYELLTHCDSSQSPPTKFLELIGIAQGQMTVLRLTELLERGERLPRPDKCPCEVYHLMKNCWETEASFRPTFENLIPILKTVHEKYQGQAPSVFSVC
- protocolSummary: KINOMEscan competition binding
- testParameters: compound 10.0 µM
Please go through the items and note down their kinase still bound, per cent of control.
Express the result in % but write the number alone.

Challenge: Report kinase still bound, per cent of control for `CCN(CCO)CCCOc1ccc2c(Nc3cc(CC(=O)Nc4cccc(F)c4)[nH]n3)ncnc2c1` please.
Response given: 85

Challenge: Next record, please: `CNC(=O)Nc1ccc(-c2nc(N3CC4CCC(C3)O4)c3cnn(C4CCC5(CC4)OCCO5)c3n2)cc1`
Response given: 100

Challenge: Please answer likewise for CC1=C(C(=O)Nc2cc3cn[nH]c3cc2F)C(c2ccc(C(F)(F)F)cc2)CC(=O)N1 (stereo not drawn)
Response given: 20

Challenge: Query `COc1cc(N2CCC(C(N)=O)CC2)ccc1Nc1nc(N)c(Cl)c(Nc2ccccc2S(=O)(=O)C(C)C)n1` next
Response given: 100

Challenge: One more compound: `O=c1[nH]c2ccccc2n1C1CCN(Cc2ccc(-c3nc4cc5[nH]cnc5cc4nc3-c3ccccc3)cc2)CC1`
Response given: 66

Challenge: Proceed to `CCN1CCN(Cc2ccc(NC(=O)c3ccc(C)c(/C=C/c4cnc5[nH]ccc5c4OC)c3)cc2C(F)(F)F)CC1`
Response given: 12

Challenge: Another: `CCc1nc(-c2cccc(C)c2)c(-c2ccnc(NC(=O)c3ccccc3)c2)s1`
Response given: 100

Challenge: And for `Cc1cn(-c2cc(C(=O)Nc3ccc(C)c(NC(=O)c4ccno4)c3)cc(C(F)(F)F)c2)cn1` ?
Response given: 100
